Value source: the supplement of paper PMC8253809

- Tested on: SUDIPGXXI (diffuse intrinsic pontine glioma line)
- Experiment summary: EC50 (inflection of fitted growth-inhibition curve) (log10 M)
Range-based classes on measured EC50 (log10 M): lower segment = under -6, middle segment = from -6 up to -5, upper segment = -5 and over

Compound | Assayed system | Label class
O=C(c1ccccc1)c1ccc2nc(NC(=O)c3csc(C4CCN(c5ncnc6ccsc56)CC4)n3)[nH]c2c1 | SUDIPGXXI | middle segment
c1ccc2c(-c3cnn4cc(-c5ccc(N6CCNCC6)cc5)cnc34)ccnc2c1 | SUDIPGXXI | lower segment
COC(=O)Nc1nc2cc(C(=O)c3ccccc3)ccc2[nH]1 [MEBENDAZOLE] | SUDIPGXXI | lower segment
CC(C(O)c1ccc(O)cc1)N1CCC(Cc2ccccc2)CC1 (stereo not drawn) [IFENPRODIL] | SUDIPGXXI | upper segment
CN1[C@@H]2CC[C@H]1C[C@@H](OC(=O)c1cc(Cl)cc(Cl)c1)C2 [BEMESETRON] | SUDIPGXXI | middle segment
O=C(Nc1ccccc1-c1cn2c(CN3CCNCC3)csc2n1)c1cnc2ccccc2n1 [SRT1720] | SUDIPGXXI | middle segment
O=C(c1ccc(Nc2nccc(-c3cc4ccccc4s3)n2)cc1)N1CCC(N2CCCC2)CC1 [IKK 16] | SUDIPGXXI | middle segment
CC1=C(/C=C/C(C)=C/C=C/C(C)=C/C(=O)O)C(C)(C)CCC1 [TRETINON] | SUDIPGXXI | lower segment
CN(C)C/C=C/C(=O)Nc1cc2c(Nc3ccc(F)c(Cl)c3)ncnc2cc1O[C@H]1CCOC1 [AFATINIB] | SUDIPGXXI | middle segment
CC12CC3CC(C)(C1)CC(N)(C3)C2 [MEMANTINE] | SUDIPGXXI | upper segment
C#Cc1cccc(Nc2ncnc3cc(OCCOC)c(OCCOC)cc23)c1 [ERLOTINIB] | SUDIPGXXI | middle segment
CN1CCc2c(c3ccccc3n2Cc2ccc(C(=O)NO)cc2)C1 [TUBASTATIN A] | SUDIPGXXI | upper segment
NC(=O)Nc1sc(-c2ccc(F)cc2)cc1C(N)=O [TPCA-1] | SUDIPGXXI | upper segment
CCCCc1oc2ccc(NS(C)(=O)=O)cc2c1C(=O)c1ccc(OCCCN(CCCC)CCCC)cc1 [DRONEDARONE] | SUDIPGXXI | middle segment
Cc1nc(Nc2ncc(C(=O)Nc3c(C)cccc3Cl)s2)cc(N2CCN(CCO)CC2)n1 [DASATINIB] | SUDIPGXXI | upper segment

====

- Tested on: DIPGX7 (H3.3 K27M diffuse intrinsic pontine glioma line)
- Experiment summary: area under dose-response curve of % growth inhibition (log2 RLU vs DMSO / staurosporine), 1e-11 to 1e-4 M (% x log10 M); higher = more growth inhibition
Give class 1 when the value for area under dose-response curve is at least 70. Give class 0 when it is less.

Molecule | Label class
O=C1NC(=O)C(c2cnc3ccccn23)=C1c1cn2c3c(cc(F)cc13)CN(C(=O)N1CCCCC1)CC2 | class 0
CCOC(=O)CCNc1cc(N2CCc3ccccc3CC2)nc(-c2ccccn2)n1 | class 0
OC1(c2ccc(Cl)c(C(F)(F)F)c2)CCN(CCCC(c2ccc(F)cc2)c2ccc(F)cc2)CC1 | class 1
COc1ccc(Cn2ccc3ccc(C(=O)NO)cc32)cc1 | class 0
C=CCNC1=C2C[C@@H](C)C[C@H](OC)[C@H](O)[C@@H](C)/C=C(\C)[C@H](OC(N)=O)[C@@H](OC)/C=C\C=C(/C)C(=O)NC(=CC1=O)C2=O | class 1
CC(C(O)c1ccc(O)cc1)N1CCC(Cc2ccccc2)CC1 (stereo not drawn) | class 0
N[C@H]1C[C@@H]1c1ccc(-c2cccc(O)c2)cc1 | class 1

====

- Test system: HGGX6 (H3.3 G34R paediatric high-grade glioma line)
- Experiment summary: area under dose-response curve of % growth inhibition (log2 RLU vs DMSO / staurosporine), 1e-11 to 1e-4 M (% x log10 M); higher = more growth inhibition

Molecule | area under dose-response curve
CN(C)C/C=C/C(=O)Nc1cc2c(Nc3ccc(F)c(Cl)c3)ncnc2cc1O[C@H]1CCOC1 [AFATINIB] | 86.1
COc1cc(Nc2ncc3c(n2)-c2ccc(Cl)cc2C(c2c(F)cccc2OC)=NC3)ccc1C(=O)O [ALISERTIB] | 49.8
COc1cc(OC)c2c(=O)[nH]c(-c3cc(C)c(OCCO)c(C)c3)nc2c1 [RVX-208] | 12
CC(C)[C@H]1C(=O)N[C@@H](CCCNC(=N)N)C(=O)NCC(=O)N[C@@H](CC(=O)O)C(=O)N[C@H](Cc2ccccc2)C(=O)N1C [CILENGITIDE] | 2.93

====

Measured area under dose-response curve values are reported for all entries that follow.
- Tested on: HGGX6
- Experiment summary: area under dose-response curve of % growth inhibition (log2 RLU vs DMSO / staurosporine), 1e-11 to 1e-4 M (% x log10 M); higher = more growth inhibition

Molecule | area under dose-response curve
O=C(O)C[C@H](O)C[C@H](O)/C=C/c1c(C2CC2)nc2ccccc2c1-c1ccc(F)cc1 | 95.1
Nc1ccn([C@@H]2O[C@H](CO)[C@@H](O)C2(F)F)c(=O)n1 | 54.2
COc1cc2c(cc1OCCCN1CCCC1)N=C(N)C21CCC1 | 19.9
C[C@@H]1C[C@H]2[C@@H]3CCC4=CC(=O)C=C[C@]4(C)[C@@]3(Cl)[C@@H](O)C[C@]2(C)[C@@]1(OC(=O)c1ccco1)C(=O)CCl [MOMETASONE FUROATE] | 8.37

====

- System: SUDIPGXIII (diffuse intrinsic pontine glioma line)
- Experiment summary: area under dose-response curve of % growth inhibition (log2 RLU vs DMSO / staurosporine), 1e-11 to 1e-4 M (% x log10 M); higher = more growth inhibition
Readout label: area under dose-response curve

Compound structure string | Readout label | Observed measurement
CC(C)C[C@H](NC(=O)[C@H](Cc1ccccc1)NC(=O)c1cnccn1)B(O)O | area under dose-response curve | 491
C[C@@H]1O[C@@H](O[C@H]2C[C@@H](O)[C@]3(CO)[C@H]4[C@H](O)C[C@]5(C)[C@@H](C6=CC(=O)OC6)CC[C@]5(O)[C@@H]4CC[C@]3(O)C2)[C@H](O)[C@H](O)[C@H]1O | area under dose-response curve | 107
CC(=O)c1ccc2c(c1)c1cc(C(C)=O)ccc1n2CCNC(C)C | area under dose-response curve | 123
N#CN=C(NCCCCCCOc1ccc(Cl)cc1)Nc1ccncc1 | area under dose-response curve | 335

====

- System: DIPGX37 (H3.3 K27M diffuse intrinsic pontine glioma line)
- Experiment summary: area under dose-response curve of % growth inhibition (log2 RLU vs DMSO / staurosporine), 1e-11 to 1e-4 M (% x log10 M); higher = more growth inhibition
Readout label: area under dose-response curve

Compound | Assayed system | Readout label | Observed measurement
COCC1(CO)C(=O)C2CCN1CC2 (stereo not given) | DIPGX37 | area under dose-response curve | 87.7
COC1=CC(c2cc3ccccc3[nH]2)=N/C1=C\c1[nH]c(C)cc1C | DIPGX37 | area under dose-response curve | 167
CC(=O)Oc1ccc(C(c2ccc(OC(C)=O)cc2)c2ccccn2)cc1 | DIPGX37 | area under dose-response curve | 11.1
CCCCCCNC(=O)n1cc(F)c(=O)[nH]c1=O | DIPGX37 | area under dose-response curve | 30.3
CC1=C(/C=C/C(C)=C/C=C/C(C)=C/C(=O)O)C(C)(C)CCC1 | DIPGX37 | area under dose-response curve | 46.7
CC(N[C@H]1C[C@@H]1c1ccccc1)c1ccc2c(c1)OCCO2 (stereo not given in full) | DIPGX37 | area under dose-response curve | 24
CN(C)CCCOc1nn(Cc2ccccc2)c2ccccc12 | DIPGX37 | area under dose-response curve | 105
CCN1CCN(c2cc(-c3ccc(F)cc3)c3c(n2)CCCCCC3)CC1 | DIPGX37 | area under dose-response curve | 73.5
N=C(N)c1ccc(N=NNc2ccc(C(=N)N)cc2)cc1 | DIPGX37 | area under dose-response curve | 90.7
CNC(=O)c1cc(Oc2ccc(NC(=O)Nc3ccc(Cl)c(C(F)(F)F)c3)cc2)ccn1 | DIPGX37 | area under dose-response curve | 104

====

- Tested on: HABS (astrocyte control)
- Experiment summary: maximal growth inhibition (yFin) relative to DMSO / staurosporine; higher = more efficacious
Measured maximal growth inhibition values are reported for all entries that follow.

Compound | maximal growth inhibition
CC[C@@]1(O)C(=O)OCc2c1cc1n(c2=O)Cc2cc3c(CN(C)C)c(O)ccc3nc2-1 | 64.3%
NC1CCC(Nc2cc(-c3cccc(NCc4cccc(F)c4)n3)c(Cl)cn2)CC1 (stereo not given) | 98.5%
CCCc1cc(C)[nH]c(=O)c1CNC(=O)c1cc(-c2ccnc(N3CCN(C)CC3)c2)cc2c1cnn2C(C)C | 69%
Cc1noc2c1-c1ccccc1C(c1ccc(Cl)cc1)=N[C@H]2CC(N)=O | 72.8%
CCCS(=O)(=O)c1nc(NC2CC2)cc(-c2ccc3c(ccn3C3CC(C)(C)NC(C)(C)C3)c2)n1 | 86.9%
